- tested target: mu opioid receptor (MOR) (Homo sapiens, UniProt P35372)
- Sequence (P35372 whole entry): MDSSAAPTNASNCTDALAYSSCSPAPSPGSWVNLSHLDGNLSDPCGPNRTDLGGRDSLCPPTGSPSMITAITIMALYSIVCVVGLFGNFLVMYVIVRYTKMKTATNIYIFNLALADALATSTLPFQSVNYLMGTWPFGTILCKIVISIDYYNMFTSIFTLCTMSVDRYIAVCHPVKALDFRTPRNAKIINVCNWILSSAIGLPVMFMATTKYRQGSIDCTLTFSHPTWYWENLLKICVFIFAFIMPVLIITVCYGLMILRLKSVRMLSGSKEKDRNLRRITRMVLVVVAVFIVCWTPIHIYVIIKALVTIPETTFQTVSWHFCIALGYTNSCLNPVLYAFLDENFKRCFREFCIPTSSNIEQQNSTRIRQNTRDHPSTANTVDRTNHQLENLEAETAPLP
- method description: MOR GTPγS agonist assay
- Type: biochemical
- Design: host or cells: CHO-K1
- recorded conditions: membranes of CHO cells over-expressing MOR; SPA beads; read-out: MOR GTPγS EC50
metric: EC50

Below: 3 compounds and their reported EC50.
CN(CC(F)(F)F)[C@H](CNC(=O)c1ccc(Cl)c(Cl)c1)Cc1ccc2[nH]ncc2c1: > 1000 nM
CCN(CC)[C@H](CNC(=O)c1ccc(Cl)c(Cl)c1)Cc1ccc2[nH]ncc2c1: < 100 nM
Cc1cc(O)cc(C)c1C[C@@H](CNC(=O)c1ccc(C(F)(F)F)cc1)N(C)C: < 100 nM

Qu. Item CNC(=O)c1cc(C)c(C[C@@H](CNC(=O)c2ccc(Cl)cc2)N(C)C)c(C)c1 with mu opioid receptor (MOR) (Homo sapiens, UniProt P35372) - EC50?
Ans. < 100 nM

Qu. Item: O=C(NC[C@H](Cc1ccc2[nH]ncc2c1)N1CCCC1)c1ccc(Cl)c(Cl)c1
Ans. 100 to 1000 nM

Qu. Item: CN(CC1CC1)[C@H](CNC(=O)c1ccc(Cl)c(Cl)c1)Cc1ccc2[nH]ncc2c1
Ans. 100 to 1000 nM

Qu. Item: CNC(=O)c1ccc(C[C@@H](CNC(=O)N2CCc3ccccc3C2)N(C)C)cc1F
Ans. < 100 nM

Qu. Item: Cc1cc(O)cc(C)c1C[C@@H](CNC(=O)c1cccc(Cl)c1)N(C)C
Ans. < 100 nM

----------
- tested target: mu opioid receptor (MOR) (Homo sapiens, UniProt P35372)
- method description: MOR cAMP agonist assay
pEC50: −log10 of the molar value.
metric: pEC50

Below: 4 molecules and their reported pEC50.
Cc1cc(C(N)=O)cc(C)c1C[C@H](N)CNC(=O)N[C@H](c1ccccc1)C1CC1 [Compound A-6]: 6.00 to 7.00
CN(CC1CC1)[C@H](CNC(=O)[C@@H]1C[C@]1(C)c1ccccc1)Cc1ccc2[nH]c(=O)oc2c1 [Compound B-32]: 6.00 to 7.00
Cc1cc(C(N)=O)cc(C)c1C[C@@H](CNC(=O)N[C@H](c1ccccc1)C1CC1)N(C)C [Compound A-9]: < 6.00
CN(C)[C@H](CNC(=O)[C@@H]1C[C@@]1(C)c1ccccc1)Cc1ccc2[nH]ncc2c1 [Compound B-20]: > 7.00

Qu. Endpoint output: pEC50 of CN(C)[C@H](CNC(=O)[C@@H]1C[C@@]1(C)c1ccccc1)Cc1cc2cn[nH]c2cc1Cl [Compound B-52] . Value?
Ans. > 7.00

Qu. Item: Cc1cc(O)cc(C)c1C[C@@H](CNC(=O)[C@@H]1C[C@@]1(C)c1ccccc1)N(C)C [Compound B-13]
Ans. > 7.00

----------
Listed here are molecules together with their documented IC50.
- tested target: kappa opioid receptor (KOR) (Homo sapiens, UniProt P41145)
- Construct: host or cells: CHO-K1
- Sequence (P41145 whole entry): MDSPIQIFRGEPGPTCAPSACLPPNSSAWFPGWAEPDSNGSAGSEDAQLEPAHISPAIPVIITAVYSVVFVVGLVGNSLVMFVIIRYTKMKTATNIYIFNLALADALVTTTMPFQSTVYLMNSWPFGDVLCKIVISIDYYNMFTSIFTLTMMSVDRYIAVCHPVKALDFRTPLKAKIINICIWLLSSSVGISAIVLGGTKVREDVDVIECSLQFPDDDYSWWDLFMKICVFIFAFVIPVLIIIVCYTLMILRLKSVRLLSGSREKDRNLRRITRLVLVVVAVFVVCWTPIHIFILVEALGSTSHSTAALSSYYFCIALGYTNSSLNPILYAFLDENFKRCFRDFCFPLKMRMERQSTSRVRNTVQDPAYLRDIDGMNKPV
- method description: cell-based
- recorded conditions: kOR cAMP IC50, CHO-K1 cells expressing kOR; after activation with dynorphin B

Below: 5 molecules and their reported IC50.
CN(C)[C@H](CNC(=O)[C@H]1C[C@@]1(C)c1ccccc1)Cc1ccc(O)cc1: > 1000 nM
CN(C)[C@H](CNC(=O)c1cccc(Cl)c1)Cc1ccc(O)cc1Cl: 100 to 1000 nM
CNC(=O)c1cc(C)c(C[C@@H](CNC(=O)c2ccccc2)N(C)C)c(C)c1: > 1000 nM
Cc1cc(C(N)=O)cc(C)c1C[C@H](N)CNC(=O)N[C@H](c1ccccc1)C1CC1: 100 to 1000 nM
CN(C)[C@H](CNC(=O)C1CC1(C)c1ccccc1)Cc1ccc(C(N)=O)cc1 (stereo partly drawn): > 1000 nM

Qu. Endpoint output: IC50 of CNC(=O)c1ccc(C[C@@H](CNC(=O)c2ccc(C)cc2C)N(C)C)cc1F . Value?
Ans. > 1000 nM

Qu. Item: CN(C)[C@H](CNC(=O)[C@@H]1C[C@]1(C)c1ccccc1)Cc1ccc2[nH]c(=O)oc2c1
Ans. > 1000 nM

Qu. Item: CN(C)[C@H](CNC(=O)c1ccccc1-c1ccccc1)Cc1ccc(O)cc1
Ans. 100 to 1000 nM

Qu. Item: CN(C)[C@H](CNC(=O)[C@H]1CCCN1c1ccccc1)Cc1ccc(C(N)=O)cc1
Ans. > 1000 nM

----------
- tested target: UniProt P35372
- method description: MOR cAMP agonist assay
metric: EC50

Below: 5 compounds and their reported EC50.
Cc1cc(C[C@@H](CNC(=O)[C@@H]2C[C@]2(C)c2ccccc2)N(C)C)ccc1O [Compound B-42]: < 100 nM
CN(C)[C@H](CNC(=O)[C@@H]1CCCN1c1ccccc1)Cc1ccc(C(N)=O)cc1 [Compound B-10]: 100 to 1000 nM
CN(C)[C@H](CNC(=O)[C@@H]1C[C@]1(C)c1ccccc1)Cc1ccc(O)cc1 [Compound B-12]: > 1000 nM
C[C@H](OC(=O)NC[C@@H](N)Cc1ccc(C(N)=O)cc1)c1ccccc1 [Compound A-2]: > 1000 nM
CNC(=O)c1ccc(C[C@@H](CNC(=O)[C@@H]2C[C@@]2(C)c2ccccc2)N(C)C)cc1F [Compound B-2]: < 100 nM

Qu. Endpoint output: EC50 of CN(C)[C@H](CNC(=O)[C@@H]1C[C@@H]1c1ccccc1)Cc1ccc(O)cc1 [Compound B-25] . Value?
Ans. 100 to 1000 nM

Qu. Item: CN(C)[C@H](CNC(=O)[C@@H]1C[C@@]1(C)c1ccccc1)Cc1ccc(O)c(Cl)c1 [Compound B-59]
Ans. < 100 nM

Qu. Item: Cc1cc(O)cc(C)c1C[C@@H](CNC(=O)[C@@H]1C[C@]1(C)c1ccccc1)N(C)C [Compound B-47]
Ans. < 100 nM

Qu. Item: CN(C)[C@H](CNC(=O)[C@@H]1C[C@@]1(C)c1ccccc1)Cc1ccc(O)cc1 [Compound B-62]
Ans. < 100 nM

Qu. Item: CNC(=O)c1cc(F)c(C[C@@H](CNC(=O)[C@@H]2C[C@]2(C)c2ccccc2)N(C)C)cc1F [Compound B-28]
Ans. < 100 nM

Qu. Item: C[C@H](OC(=O)NC[C@H](Cc1ccc(C(N)=O)cc1)N(C)C)c1ccccc1 [Compound A-3]
Ans. < 100 nM

Qu. Item: Cc1cc(C(N)=O)cc(C)c1C[C@@H](CNC(=O)C[C@@H](C)c1ccccc1)N(C)C [Compound A-11]
Ans. > 1000 nM

Qu. Item: CCNC(=O)c1ccc(C[C@@H](CNC(=O)[C@@H]2C[C@]2(C)c2ccccc2)N(C)C)cc1F [Compound B-34]
Ans. < 100 nM

Qu. Item: C[C@H](NC(=O)NC[C@H](Cc1ccc(C(N)=O)cc1)N(C)C)c1ccccc1 [Compound A-1]
Ans. > 1000 nM

Qu. Item: CN(C)[C@H](CNC(=O)[C@@H]1C[C@@]1(C)c1ccccc1)Cc1ccc(O)cc1Cl [Compound B-1]
Ans. < 100 nM

Qu. Item: CN(C)[C@H](CNC(=O)[C@@H]1C[C@]1(C)c1ccccc1)Cc1ccc(O)cc1F [Compound B-31]
Ans. < 100 nM

Qu. Item: CN(C)[C@H](CNC(=O)[C@H]1CCCN1c1ccccc1)Cc1ccc(C(N)=O)cc1 [Compound B-9]
Ans. 100 to 1000 nM

----------
- tested target: mu opioid receptor (MOR) (Homo sapiens)
- method description: MOR cAMP agonist assay
pEC50: −log10 of the molar value.
Listed here are compounds together with their documented pEC50.

Qu. Endpoint output: pEC50 of Cc1cc(C(N)=O)cc(C)c1C[C@H](N)CNC(=O)O[C@@H](C)c1ccccc1 [Compound A-5] . Value?
Ans. 6.00 to 7.00

Qu. Item: CN(CC(F)(F)F)[C@H](CNC(=O)[C@@H]1C[C@]1(C)c1ccccc1)Cc1ccc(C(=O)NC2CC2)c(F)c1 [Compound B-29]
Ans. > 7.00

Qu. Item: Cc1cc(O)ccc1C[C@@H](CNC(=O)[C@@H]1C[C@]1(C)c1ccccc1)N(C)C [Compound B-48]
Ans. < 6.00

Qu. Item: CNC(=O)c1cc(C)c(C[C@@H](CNC(=O)[C@@H]2C[C@@]2(C)c2ccccc2)N(C)C)cc1F [Compound B-26]
Ans. > 7.00

Qu. Item: Cc1cc(C[C@@H](CNC(=O)[C@@H]2C[C@]2(C)c2ccccc2)N(C)CC2CC2)ccc1O [Compound B-40]
Ans. > 7.00

Qu. Item: Cc1cc(C(N)=O)cc(C)c1C[C@@H](CNC(=O)O[C@@H](C)c1ccccc1)N(C)C [Compound A-7]
Ans. < 6.00

Qu. Item: CN(C)[C@H](CNC(=O)[C@@H]1C[C@@]1(C)c1ccccc1)Cc1ccc(C(N)=O)cc1Cl [Compound B-6]
Ans. > 7.00
